# assay.notes: Fluorescence excitation/emission of the styryl dye library compounds
# Assay type: physicochemical
# assay.setup: EX/EM peak no. 1
readout.name: EX(nm)

{"columns": ["compound.string", "EX(nm)"],
 "data": [
  ["COc1ccc(C=Cc2cccc(C)[n+]2C)c2ccccc12.[I-]", "420 (broad) nm"]
]}

For each listed entry, give its EX(nm).
1. C[n+]1ccc(/C=C/c2ccc3c(c2)OCO3)cc1Br.[I-]
2. CCc1ccc(/C=C/c2ccc3c(c2)OCO3)[n+](C)c1.[I-]
3. CN(C)c1ccc(C=Cc2cc[n+](C)c(Br)c2)cc1.[I-]
4. C[n+]1ccc(C=Cc2c[nH]c3ccccc23)cc1.[I-]
5. COc1ccc(C=Cc2cc[n+](C)c3ccccc23)cc1OC.[I-]
6. C[n+]1c(C=Cc2ccc3c(c2)Cc2ccccc2-3)ccc2ccccc21.[I-]
7. COc1ccc2ccccc2c1/C=C/c1c(C)ccc[n+]1C.[I-]

1. 400-420 nm
2. 390-420 (broad) nm
3. 440(broad) nm
4. 400) nm
5. 420-480 nm
6. 350-500 nm
7. 420(broad) nm

For each listed entry, give its EX(nm).
1. C[n+]1ccc(C=Cc2ccc(OCc3ccccc3)c(OCc3ccccc3)c2)c2ccccc21.[I-]
2. COc1ccc2ccccc2c1C=Cc1cc[n+](C)cc1.[I-]
3. C[n+]1ccccc1C=Cc1ccc(OCc2ccccc2)c(OCc2ccccc2)c1.[I-]

420-460 nm
450 (broad) nm
390 (broad) nm

Data origin: patent US20050054006A1
